# Tested on: ATP;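 further: ATP exposure 15 min at 22 °C before imaging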
# EXPERIMENT DESCRIPTION: switch fluorescence ratio, 500 uM ATP over buffer (Cy3 cluster intensity, sum of 5 cycles each) (fold (ratio)); higher = stronger signal-on switching upon ATP binding; sequences stand for … in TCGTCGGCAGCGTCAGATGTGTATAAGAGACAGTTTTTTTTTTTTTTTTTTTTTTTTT…TC
# TEST SETTINGS: aptamer strand: ATP DNA aptamer (quencher-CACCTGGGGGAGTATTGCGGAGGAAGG + anchor), 100 nM annealed; ATP concentration: 500 uM
QUANTITY NAME: switch fluorescence ratio

| CHAIN SEQUENCE | QUANTITY NAME | RESULT |
| --- | --- | --- |
| CGGGAAGCTT | switch fluorescence ratio | 1 |
| ACTAGTAACG | switch fluorescence ratio | 0.994 |
| TTCTCCTTTT | switch fluorescence ratio | 1.01 |
| ATTGGGTTAG | switch fluorescence ratio | 0.975 |
| TATAAGTGTT | switch fluorescence ratio | 1 |
| AATAGATTCG | switch fluorescence ratio | 0.982 |
| GTTTGGTCGG | switch fluorescence ratio | 1.04 |
| CTAATTTGCC | switch fluorescence ratio | 1.02 |
| GGAGGGGCAA | switch fluorescence ratio | 1.24 |
| CAAGGGGGA | switch fluorescence ratio | 0.995 |
| TTTGATTTAG | switch fluorescence ratio | 0.989 |

###

# Tested on: ATP;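 further: ATP exposure 15 min at 22 °C before imaging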
# EXPERIMENT DESCRIPTION: switch fluorescence ratio, 500 uM ATP over buffer (Cy3 cluster intensity, sum of 5 cycles each) (fold (ratio)); higher = stronger signal-on switching upon ATP binding; sequences stand for … in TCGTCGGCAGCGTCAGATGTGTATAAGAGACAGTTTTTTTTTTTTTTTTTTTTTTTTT…TC
# TEST SETTINGS: aptamer strand: ATP DNA aptamer (quencher-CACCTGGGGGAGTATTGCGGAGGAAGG + anchor), 100 nM annealed; ATP concentration: 500 uM

| CHAIN SEQUENCE | SYSTEM TESTED | switch fluorescence ratio |
| --- | --- | --- |
| GGGGGAAAAA | ATP | 0.998 |
| GATTGTATGG | ATP | 1.02 |
| TAAAATAGTT | ATP | 0.972 |
| GGGTAAGTGC | ATP | 1.05 |
| TACTTTTTAG | ATP | 1.02 |
| TTACGCAAGT | ATP | 1.27 |
| GTTAGAGCCG | ATP | 1.09 |
| GCAGTCGCAA | ATP | 1.1 |
| TCAAATACG | ATP | 1.06 |
| TTGTCTAGGG | ATP | 0.98 |
| AAGGGGAGTC | ATP | 1.01 |
| GGCACATAAT | ATP | 1.08 |
| GAGAGCCGAA | ATP | 1.02 |
| ACTACAAGTT | ATP | 1 |
| TTAGGGAGTG | ATP | 1 |
| GTAATTCGGG | ATP | 0.981 |
| ATGATGAGGT | ATP | 1 |
| TCGGGGGTGG | ATP | 0.988 |
| CAGGTCTTAT | ATP | 1.01 |
| TTTTATGGAT | ATP | 1.01 |
| TTAGATGGTT | ATP | 0.984 |
| TGACGGCTGG | ATP | 1.03 |
| ACTTGATCCC | ATP | 1.02 |
| GCCTGGTTGT | ATP | 1.02 |
| AATAATTTGG | ATP | 0.978 |
| TGAACAAATG | ATP | 1.04 |
| CTGGGGAGGT | ATP | 0.995 |
| ACGGGGGGGT | ATP | 1.09 |
| GCATGAGGGA | ATP | 0.993 |
| GGTTTTGCTT | ATP | 0.96 |
| CGGGGTATTG | ATP | 0.999 |
| AGAGATTGGG | ATP | 0.965 |
| TGCTTTATCT | ATP | 1.01 |
| TTAACGAGTG | ATP | 0.999 |
| CGGAGAATAG | ATP | 1.23 |
| TACTAGAAGA | ATP | 1.03 |
| CATTTTCTAG | ATP | 1.03 |
| TGAAATTGTT | ATP | 1 |
| GCGTTCCTTG | ATP | 1.07 |
| GCCGGGGGGG | ATP | 1.02 |
| CGTATAGAGA | ATP | 0.998 |
| TGGTTCTAG | ATP | 0.989 |
| TTACGGGCTA | ATP | 0.997 |
| ATTTTCATAC | ATP | 1.08 |
| GGGGGTGTCT | ATP | 0.99 |
| GATGGGGGAT | ATP | 1.01 |
| GGGGGGATGC | ATP | 1.07 |
| AAAACGCGGT | ATP | 1.2 |
| CTACTTGAGT | ATP | 0.985 |
| GGGTAGCGCT | ATP | 0.969 |
| ATCAAGGGTG | ATP | 1.11 |
| AAGCAGGGCT | ATP | 0.999 |
| ATAGGATCGC | ATP | 0.99 |
| TATTGCGTGG | ATP | 0.984 |
| TAATGTATTT | ATP | 1.01 |
| AAAATTTAAC | ATP | 1.01 |
| ATTGAGTCAC | ATP | 0.991 |
| AGGCCATAAG | ATP | 0.995 |
| TTGTTGTACT | ATP | 1.02 |
| GATGTCCCCA | ATP | 0.959 |
| CAGAGGGGGT | ATP | 0.988 |
| TGTGCTAAGT | ATP | 0.985 |
| TGTTGGGAAC | ATP | 1.07 |
| GAATTTTTGA | ATP | 0.991 |
| TGGTAGAGAG | ATP | 0.988 |
| TACAATCGCC | ATP | 1.06 |
| TTGCGTAGGC | ATP | 0.994 |
| GCTGTAGGGC | ATP | 1.01 |
| GTATTTTGCT | ATP | 0.979 |
| AATTCGATAG | ATP | 0.966 |
| GAGGCCGCTA | ATP | 1.84 |
| AATTGATTTA | ATP | 1 |
| TAATTTACTA | ATP | 1.04 |
| CGGGAAATGG | ATP | 1.01 |
| GGATCAGAGA | ATP | 1.08 |
| AATAGAGGTC | ATP | 0.988 |
| TGGTGGGATG | ATP | 0.977 |
| CAAGGTTGAG | ATP | 0.979 |
| GGGGTGCTTG | ATP | 0.988 |
| GGTGTGTGTC | ATP | 1.02 |
| TTGAGGCGGG | ATP | 0.993 |
| TTCATTTATT | ATP | 0.99 |
| TCAATACTTC | ATP | 1.88 |
| TTTTAGCAAC | ATP | 1.23 |
| CATGCGCGGA | ATP | 1.15 |
| TGGTGTATGT | ATP | 0.995 |
